src = paper PMC9636434

Test: Pharmacokinetic study, 3 mg/kg IV, 10 mg/kg PO and 10 mg/kg PO QD*3, plasma, liver and bone
Assay type: in vivo, mouse
Conditions: female, C57BL/6 J, mouse, liver, po, 10 mg/kg, liver, PO, 0.083 h, individual animals; N/A: Below detection level; read-out: Liver 6641 PO concentration
Protocol: The concentration of compound in plasma, liver, and long bones was detected using liquid chromatography tandem mass spectrometry (LC-MS/MS). […] IV administration, one 10 mg/kg PO administration and three 10 mg/kg PO administrations (QD*3). a Plasma, b liver and c bone profiles in female mice. The actual concentration (ng/g) is the detected value (ng/mL) multiplied by 4. […] Results are expressed as the mean ± SEM.
measured.quantity: concentration at 0.083 h (ng/g)
Answers are plain numbers, in ng/g.

Field request: concentration at 0.083 h | item: O=C1Nc2ccc(-c3cc(C(F)(F)F)cc(C(F)(F)F)c3)cc2C(=O)N2CCN(C(=O)COc3ccc(OC(F)(F)F)cc3I)C[C@@H]12 [compound 6641]
5.14
